# TEST DETAILS: Pharmacokinetics in cancer patients, dosing schedule of FIG. 6
# Assay type: in vivo, human
# ASSAY CONDITIONS: human, in vivo, oral; cancer patients

STRUCTURE NOTATION: O=C(Cc1cccc(OC(F)(F)F)c1)Nc1ccc(CCCCc2nnc(NC(=O)Cc3ccccn3)s2)nn1
half-life: ~4 h
